Cited source for all entries: patent US20260274955A1

Record form. Attribute: Anti-CD28 Fab signal. Fill in for each entry.
target: T1, Anti-CD28 Fab (SEQ ID NOs: 202, 203); experiment: phage ELISA on captured biotinylated Fab;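 also: wells preblocked with or without CD28 antigen, then clonal phage supernatant added briefly, washed, and bound phage read out by ELISA using HRP-linked anti-M13 antibody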
T1 construct: biotinylated and captured on neutravidin coated plates in the phage ELISA
T1 sequence (VH, as listed by the source, chain 1 of 2): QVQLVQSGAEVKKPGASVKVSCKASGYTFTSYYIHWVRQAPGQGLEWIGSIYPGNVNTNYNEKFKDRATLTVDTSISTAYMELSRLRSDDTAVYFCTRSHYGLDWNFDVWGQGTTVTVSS
T1 sequence (VL, as listed by the source, chain 2 of 2): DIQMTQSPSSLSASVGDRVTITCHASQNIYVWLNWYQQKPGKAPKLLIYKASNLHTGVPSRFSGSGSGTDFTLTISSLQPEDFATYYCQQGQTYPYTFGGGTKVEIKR
Give bare numbers.

Worked examples follow.
binder: YCAGHLPMYMHKCL [Phage-264]
Anti-CD28 Fab signal: 1.99
--
binder: YCAGHSPEYMTKCL [Phage-171]
Anti-CD28 Fab signal: 2.17
--
binder: YCDGHLPQYKAKCL [Phage-160]
Anti-CD28 Fab signal: 2.19
--
binder: YCDGHFREYMQKCL [Phage-242]
Anti-CD28 Fab signal: 2.04

Go through the list and state Anti-CD28 Fab signal for each entry.
1. YCDGHSNEYMAKCL [Phage-175]
2. YCDGHVGEYMQKCL [Phage-233]
3. YCDGHLGIYMTKCL [Phage-268]
4. YCDGHSPLYIWKCL [Phage-157]
5. YCMGHAPEYMEKCL [Phage-290]
6. YCDGHLVEYMSKCL [Phage-280]
7. YCAGHLPEYMMKCL [Phage-248]
8. YCEGHLPIYLSKCL [Phage-285]

2.16
2.05
1.98
2.19
1.93
1.95
2.03
1.94
